Test system: LOX IMVI melanoma
test.method.notes: NCI-60 one-dose screen, 48 h
assay.context: 10 µM unless noted
This is part of a sample that, as a whole, favours compounds with a hit. Of some 83,000 tested, about 20% had one in any assay. Activity calls are given as the source filed them. The calls were made as follows: active = growth percent below 10; inactive = the rest.
Classes used: active, inactive

>>> class_label("Cn1nc(Nc2ccccc2)c(C(=O)NN)c1N")
"inactive"
>>> class_label("NS(=O)(=O)c1ccc(Nc2nc(N/N=C/c3ccc(F)cc3)nc(Nc3ccccc3)n2)cc1")
"inactive"
>>> class_label("C/C(=N\\NC(=S)Nc1ccc(Br)cc1)c1cc2ccccc2oc1=O")
"inactive"
>>> class_label("O=S(=O)(Nc1cc(Cl)c(F)c(Cl)c1)c1ccc(-c2cnc(C3CC3)o2)cc1")
"inactive"
>>> class_label("COc1ccc(S(=O)(=O)n2cc(C=O)c3ccccc32)c(OC)c1")
"inactive"
>>> class_label("O=S(=O)(NCCCNc1nccc(-n2cnc3ccccc32)n1)c1ccc(F)cc1")
"inactive"
>>> class_label("C#CCOc1ccccc1C(Nc1ccccc1)c1nnnn1C1CCCCC1 (stereo not given)")
"inactive"
>>> class_label("O=S(=O)(Nc1ccc(-n2cnc3cc(-c4ccc(O)cc4)ccc32)cc1)C1CC1")
"inactive"
>>> class_label("O=[N+]([O-])c1ccc(-c2nnc(SCc3ccc(O)c4ncccc34)n2-c2ccccc2)cc1")
"active"
>>> class_label("Cc1ccccc1/C=C/c1nn2c(-c3ccoc3C)nnc2s1")
"inactive"

###

Test system: HOP-92 NSCLC
test.method.notes: NCI-60 one-dose screen, 48 h
assay.context: 10 µM unless noted
About 83,000 compounds went through this panel and 20% of them were active in at least one assay; those are over-represented in the sample as a whole. Calls of active or inactive are those of the source. Rule for the calls: active = growth percent below 10; inactive = the rest.
Outcomes: active, inactive

>>> class_label("COc1ccc(-c2ccc3c4c(cccc24)C(=O)N(N2C(=O)c4cccc5cccc(c45)C2=O)C3=O)cc1")
"inactive"
>>> class_label("Cc1cc(NS(=O)(=O)c2ccc(-c3cnc(C4CC4)o3)cc2)ccc1I")
"inactive"
>>> class_label("Cc1cc(F)cc(NS(=O)(=O)c2ccc(-c3cnc(C4CC4)o3)cc2)c1")
"inactive"
>>> class_label("CNC(=O)c1cc(Oc2ccc3nc(NC(=O)c4ccc(CN5CCCN(C)CC5)c(C(F)(F)F)c4)sc3c2)ccn1")
"inactive"
>>> class_label("CCOP(=O)(OCC)OC[C@]12CCC(C)(C)C[C@H]1C1=CC[C@@H]3[C@@]4(C)C/C(=C\\c5cccnc5)[C@H](OP(=O)(OCC)OCC)C(C)(C)[C@@H]4CC[C@@]3(C)[C@]1(C)CC2")
"active"
>>> class_label("COc1ccccc1N1CCN(C2=NN=C(c3cccc(Cl)c3)c3ccccc3C2)CC1")
"inactive"
>>> class_label("Cc1ccc(NC(=O)c2ccc(CN3CCN(C)CC3)c(I)c2)cc1Oc1ccc(-c2[nH]nc3ncnc(N)c23)cc1")
"inactive"
>>> class_label("C/C(Cc1ccc(Cl)cc1)=C(/c1ccccc1)c1ccc(OCCN)cc1")
"inactive"
>>> class_label("COc1ccc(Cn2cc3c(c2-c2cc(OC)c(OC)c(OC)c2)CCCc2cnoc2-3)cc1N")
"inactive"
>>> class_label("Nc1n[nH]c2cccc(C#Cc3cccc(NC(=O)c4cccc(OC(F)(F)F)c4)c3)c12")
"active"
>>> class_label("C=C(C)[C@@H]1CC[C@]2(C)[C@H](CC=C3[C@@H]4CC(C)(C)CC[C@]4(C(=O)NCC#CCN4CCN(C)CC4)CC[C@]32C)[C@@]1(C)CCC#N")
"inactive"
>>> class_label("COc1cc2c3c(n(CCCN4CCCC4)c(=O)c2cc1OC)-c1cc2c(cc1C3=O)OCO2")
"inactive"
>>> class_label("N#C/C(=C\\c1ccc2ccccc2c1)C(=O)Nc1sc2c(c1C#N)CCC2")
"inactive"
>>> class_label("CCN(CC)CCN1C(=O)c2c(c3c4cc(Br)ccc4[nH]c3c3ccc4ccccc4c23)C1=O")
"active"
>>> class_label("Fc1ccccc1/C=C(/C1=NCCN1)n1cnc2ccccc21")
"inactive"
>>> class_label("Cn1cc(-c2nn3cc(-c4cccnc4)nc3s2)c2cc(F)ccc21")
"inactive"
>>> class_label("CN1CCN(c2nc(-c3cnc4ccccc4n3)cc3ccccc23)CC1")
"inactive"
>>> class_label("COc1ccc(/C=N\\NC(=O)c2ccc3nc(-c4ccc(Br)cc4)[nH]c3c2)cc1")
"active"
